Assay: Pharmacokinetics and tissue distribution in BALB/c mice
Format: in vivo
Conditions: female, mouse, liver, iv, 5 mg/kg, read-out: Cl (converted)
Reported Property: clearance (mL/min/kg)
Give bare numbers, in mL/min/kg.

Entry `O=C1C(NCc2ccc(F)cc2)=CC2=NCCc3c[nH]c1c32` has what clearance?
78.3

* * *

Assay: Pharmacokinetics and tissue distribution in BALB/c mice
Assay type: in vivo
Details: female, mouse, kidneys, ip, 10 mg/kg
Reported Property: half-life (h)
One number for each entry, in h.

Entry `O=C1C(NCc2ccc(F)cc2)=CC2=NCCc3c[nH]c1c32` has what half-life?
1.58

* * *

Experiment: Pharmacokinetics and tissue distribution in BALB/c mice
Format: in vivo
Conditions: female, mouse, spleen, iv, 5 mg/kg, read-out: Vss
Reported Property: Vd (L/kg)
Answers are plain numbers, in L/kg.

Entry O=C1C(NCc2ccc(F)cc2)=CC2=NCCc3c[nH]c1c32 [FBA-TPQ] has what Vd?
1.27

* * *

Assay: Pharmacokinetics and tissue distribution in BALB/c mice
Type: in vivo
Conditions: female, mouse, liver, ip, 10 mg/kg
Reported Property: half-life (min)
Answers are plain numbers, in min.

Entry `O=C1C(NCc2ccc(F)cc2)=CC2=NCCc3c[nH]c1c32` has what half-life?
7.62

* * *

Assay: Pharmacokinetics and tissue distribution in BALB/c mice
Type: in vivo
Conditions: female, mouse, lungs, ip, 10 mg/kg
Reported Property: AUC (ng·h/mL)
One number for each entry, in ng·h/mL.

Entry O=C1C(NCc2ccc(F)cc2)=CC2=NCCc3c[nH]c1c32 [FBA-TPQ] has what AUC?
5710

* * *

Test: Pharmacokinetics and tissue distribution in BALB/c mice
Assay type: in vivo
Details: female, mouse, brain, ip, 10 mg/kg
Reported Property: AUC (ng·h/mL)
Give bare numbers, in ng·h/mL.

Entry `O=C1C(NCc2ccc(F)cc2)=CC2=NCCc3c[nH]c1c32` has what AUC?
62.3

* * *

Assay: Pharmacokinetics and tissue distribution in BALB/c mice
Assay type: in vivo
Settings: female, mouse, lungs, iv, 5 mg/kg
Reported Property: AUC
Value and unit, in that order.

Entry O=C1C(NCc2ccc(F)cc2)=CC2=NCCc3c[nH]c1c32 [FBA-TPQ] has what AUC?
4020 ng·h/mL

* * *

Assay: Pharmacokinetics and tissue distribution in BALB/c mice
Assay type: in vivo
Conditions: female, mouse, plasma, single bolus iv dose 5 mg/kg, read-out: clearance rate (converted)
Reported Property: clearance (mL/min/kg)
One number for each entry, in mL/min/kg.

Entry `O=C1C(NCc2ccc(F)cc2)=CC2=NCCc3c[nH]c1c32` has what clearance?
141

* * *

Experiment: Pharmacokinetics and tissue distribution in BALB/c mice
Assay type: in vivo
Settings: female, mouse, liver, ip, 10 mg/kg
Reported Property: AUC (ng·h/mL)
Give bare numbers, in ng·h/mL.

Entry O=C1C(NCc2ccc(F)cc2)=CC2=NCCc3c[nH]c1c32 [FBA-TPQ] has what AUC?
1850

* * *

Test: Pharmacokinetics and tissue distribution in BALB/c mice
Format: in vivo
Conditions: female, mouse, heart, iv, 5 mg/kg
Reported Property: AUC (ng·h/mL)
One number for each entry, in ng·h/mL.

Entry `O=C1C(NCc2ccc(F)cc2)=CC2=NCCc3c[nH]c1c32` has what AUC?
2000

* * *

Assay: Pharmacokinetics and tissue distribution in BALB/c mice
Type: in vivo
Conditions: female, mouse, plasma, intraperitoneal, based on AUC values, ip 10 mg/kg vs iv 5 mg/kg
Reported Property: bioavailability (%)
One number for each entry, in %.

Entry `O=C1C(NCc2ccc(F)cc2)=CC2=NCCc3c[nH]c1c32` has what bioavailability?
28.9

* * *

Assay: Pharmacokinetics and tissue distribution in BALB/c mice
Type: in vivo
Details: female, mouse, kidneys, iv, 5 mg/kg, read-out: Vss
Reported Property: Vd (L/kg)
Numbers only, in L/kg.

Entry `O=C1C(NCc2ccc(F)cc2)=CC2=NCCc3c[nH]c1c32` has what Vd?
0.491

* * *

Experiment: Pharmacokinetics and tissue distribution in BALB/c mice
Type: in vivo
Conditions: female, mouse, liver, iv, 5 mg/kg
Reported Property: half-life (min)
Give bare numbers, in min.

Entry O=C1C(NCc2ccc(F)cc2)=CC2=NCCc3c[nH]c1c32 [FBA-TPQ] has what half-life?
30.6

* * *

Experiment: Pharmacokinetics and tissue distribution in BALB/c mice
Assay type: in vivo
Settings: female, mouse, lungs, iv, 5 mg/kg, read-out: Vss
Reported Property: Vd (L/kg)
Give bare numbers, in L/kg.

Entry O=C1C(NCc2ccc(F)cc2)=CC2=NCCc3c[nH]c1c32 [FBA-TPQ] has what Vd?
7.79

* * *

Assay: Pharmacokinetics and tissue distribution in BALB/c mice
Format: in vivo
Details: female, mouse, spleen, iv, 5 mg/kg
Procedure: To assess the disposition of FBA-TPQ in vivo, pharmacokinetic studies in BALB/c were conducted. […] The average FBA-TPQ concentrations in plasma and tissues at each of the time points following intravenous and intraperitoneal administrations were used for pharmacokinetic analyses using a one- or two-compartmental model, respectively. […] Bioavailability (X) was calculated as X = [AUCip × doseiv]/[AUCiv × doseip].
Reported Property: AUC (ng·h/mL)
Answers are plain numbers, in ng·h/mL.

Entry O=C1C(NCc2ccc(F)cc2)=CC2=NCCc3c[nH]c1c32 [FBA-TPQ] has what AUC?
2330

* * *

System: Mia PaCa-2 cells
Test: MTT cell survival assay, Mia PaCa-2
Type: cell-based
Settings: Homo sapiens, Mia PaCa-2, 72 h, read-out: Cytotoxicity IC50
Reported Property: pIC50
Numbers only, as −log10 of the molar value.

Entry `O=C1C(NCc2ccc(F)cc2)=CC2=NCCc3c[nH]c1c32` has what pIC50?
6.49

* * *

Test: Pharmacokinetics and tissue distribution in BALB/c mice
Assay type: in vivo
Details: female, mouse, spleen, iv, 5 mg/kg, read-out: Cl (converted)
Reported Property: clearance (mL/min/kg)
One number for each entry, in mL/min/kg.

Entry `O=C1C(NCc2ccc(F)cc2)=CC2=NCCc3c[nH]c1c32` has what clearance?
33
